tested on: p300TAZ2 (TAZ2 domain of p300) (Homo sapiens, UniProt Q09472, A1723W)
Construct: Human p300TAZ2 [aa 1722–1812, pGEX-4T-1 vector with an additional tobacco etch virus (TEV) cleavage site]; GST (pGEX-4T-1, TEV site) (N, cleaved yes); made in house; host or cells: Escherichia coli Rosetta-2 (DE3) pLysS
Sequence (Q09472 1722-1812 A1723W): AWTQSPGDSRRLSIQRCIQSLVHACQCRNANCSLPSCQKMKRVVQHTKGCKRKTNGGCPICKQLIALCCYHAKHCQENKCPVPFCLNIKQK
experiment summary: Microscale thermophoresis (MST) binding of p300TAZ2-His to EZH2 TAD peptides
applied conditions: direct binding, p300TAZ2-6×His labeled RED-tris-NTA, 10 nM; 25 mM Tris pH 7.5, 150 mM NaCl, 2.5 mM DTT; 1:1 stoichiometry; average ± SD of three (EZH2TAD2, EZH2TAD3) or four (EZH2TAD1) independent measurements
No end group written: not given here.
A collection of sequences and their measured Kd
# output: bare number, implied unit nM

Past entries and their recorded results:
SDKIFEAISSMF [EZH2TAD3]    520
NDEIFVELVNALGQYNDDD [EZH2TAD2]    310

Now examine the next entry.
Problem: Quick one: Kd for DGTFIEELIKNYD [EZH2TAD1] ?
Solution: 530
